Exercise: state measured apparent KD of MS2 coat protein for each of the sequences provided.
# Tested on: MS2 coat protein
# protocol_notes: apparent KD of MS2 coat protein; higher = weaker reporter binding
# condition_context: Eterna round: R107; input ligand: arginine 13.2 mM

Would you please look over these solved cases?
seq_text: UCGGGCAGAGCGGCCGCCACUGUUUGGCAUGCGGAUGAAGGAACAUGAGGAUCACCCAUGUAGAUUAGGACCGGGCUUGCGGAGA [rvcmullin]
apparent KD of MS2 coat protein: 19.1 nM

seq_text: AACAUGAGCACGGCCGCCACUCCAUGAACAUGAGGAUCACCCAUACACAUGAGGAUCACCCAUGUGAGGACCGGGUGUCCAUGUG [Exclusion Tryptophan B 2]
apparent KD of MS2 coat protein: 12.6 nM

seq_text: GCCUCCAGCCGAAGGAGCGCUAGAAGGUGACAUGAGGAUCACCCAUGUGUGUGAUGUGGCUAGCAGGUAGGUCGCGGAGGAGGUU [Exclusion - Arginine B (Freestyle 20)]
apparent KD of MS2 coat protein: 62.7 nM

seq_text: GGGUGGUAGGCGGCCGCCACUGAUUUUUAUAUAUAUAUGACAUGAGGAUCACCCAUGUAGAUAUGCAGGACCGGGCCUGUUGUUU [aaaN]
apparent KD of MS2 coat protein: 22.4 nM

seq_text: UUGGGUUUGUGAAGGAGCGGGAAAUAUAUAUAUAUAAUCCUAACAUGAGGAUCACCCAUGUCCCAGGUAGGUCGCGCGGGUUUGG [12.N]
apparent KD of MS2 coat protein: 46.4 nM

Please state, for each entry, its recorded apparent KD of MS2 coat protein.
1. UAUCCACAUGAGGAUCACCCAUGUUAGGAAGGAGCGGUGAAUGCACCAGGUAGGUCGCCUAGCUGAGGACUGUCGGUGGAUUCGU [Exclusion - Arginine A (Freestyle 19)]
2. GACAUGAGGAUCACCCAUGUUUUCUAUGAAGGAGCGUCGGAAAUGACAGGUAGGUCGCAUGGUAGGACUUGUAUCUUGUAUGUAG [EAA NP+V+V2 #10]
3. AUAACAUGAGGAUCACCCAUGUUGAGUGAUACCAGACCAUGUAGUGUCCCUUGGCAGCACAGGUAAAGUUGUAAAUAACGAUAGA [#13 SameState-TheophyllineA]
4. AGAGUUAGACAAAAGUCUAGCUCACCAGAAGGAGCGUCCGAAAGGACAGGUAGGUCGCUGGUACAUGAGGAUCACCCAUGUUCCU [ArgAS 8 #OpenEnded]
5. GGAUAGAUAGGAGAUACCAGACACAUUAACAUGAGGAUCACCCAUGUGUCUGCACUAAGUGUCCCUUGGCAGCUCGGAGAUCUGA [Same State - Theophylline B]
6. CCCUGGGUGGGAAGGAGCGCAUAGUGAACAUGAGGAUCACCCAUGUGUAGACGUGAGUCACUGCAGGUAGGUCGCCCACCCAGGG [SS-ArgB23]

Reply text:
33 nM
13.4 nM
38.6 nM
43.5 nM
34.2 nM
19.5 nM

Please state, for each entry, its recorded apparent KD of MS2 coat protein.
1. ACUUGUGAGUCGGCCGCCACUCACCGGUAGUGUCACUCGUUCACAAACAUGAGGAUCACCCAUGUGAGGACCGGGACAGUCGGGU [theeternabot_exclusion_MS2_Trp_B_28]
2. ACGAACGAUAGUGAUACCAGACGUACAUGAGGAUCACCCAUGUUUUGGGUAAGGUUAAUAGUCCCUUGGCAGCACUUUAAGUUCG [JR_ExcTheophyB_Sub007]
3. AGAGGUAUACAUGGAAACAUGUAUAUUUCACGAGGACCGGUACGGCCGCCACUCGGUACCGGAAACACAUGAGGAUCACCCAUGU [Ex_TrypA - H1]
4. GGUUACUCUACGGCCGCCACUGAUAAAUAAUAAACCUGUACAUAAACAUGAGGAUCACCCAUGUACAGGACCGGGUAGUGUAACC [Tryptophan B 7]
5. GCUAGGUCAUCGGCCGCCACUAACGAAGGUUCGAACAUGAGGAUCACCCAUGUGCCACAUGCGCAUAGGACCGGGAUGACCUAGC [SSTB NP+V+V2 #7 +-Same Structure]
6. GAGGAAACUCACAUGAGGAUCACCCAUGUACGAGGACCGGUACGGCCGCCACUCGAAACCAUGGGCGGUAGUACGUGGAAGCUUG [Design 2 MOD 2]
7. AAAGACAUGAGGAUCACCCAUGUGGGUGGGCGAGGACCGGUACGGCCGCCACUCGUGGGCGGGAAGGGAUAUUUAAUAAGGAAGA [same state--tryptophan A 1st shot]

Reply text:
1. 13.5 nM
2. 44.6 nM
3. 17 nM
4. 30.5 nM
5. 13.8 nM
6. 21.1 nM
7. 50 nM

Where do these numbers come from? They come from the supplement of paper PMC9170038.
